system: L6 myotube cells; assay: Isobologram analysis of glucose absorption capacity, chiisanogenin and Ca-HCA; assay type: cell-based; details: Rattus norvegicus; differentiated L6 myotube cells, single compound
The entries below are paired with their reported EC50.
Just the number please, in µM, no unit attached.

C=C(C)[C@@H]1CC[C@]2(C(=O)O)CC[C@]3(C)[C@H](C[C@H]4OC(=O)C[C@@H](O)[C@]5(C)[C@@H]4[C@@]3(C)CC[C@H]5C(=C)C)[C@@H]12	23.3

// query Would you kindly share the measured EC50 for O=C(O)CC(O)(C(=O)O)C(O)C(=O)O (centres unmarked) [Ca-HCA, hydroxy citric acid] ?
// result 27.6
